- EXPERIMENT NOTES: CHI Log D procedure
- Assay type: physicochemical
- STUDY CONDITIONS: pH 7.4, CHI Log D
QUANTITY MEASURED: chromatographic logD
Format: numeric value only, no unit, no commentary.

Worked examples, 2 compounds total:
{"COMPOUND": "CC(=O)N1CCC[C@]12CC=CCCCC1(CCCC=CCCCCCC[C@@](C)(C(=O)N[C@@H](Cc3ccccc3)C(=O)N[C@@H](Cc3csc4ccccc34)C(=O)N[C@@H](CCC(N)=O)C(N)=O)NC(=O)[C@H](CC(N)=O)NC(=O)[C@H](Cc3ccccc3)NC(=O)[C@H](C)NC(=O)[C@H](C)NC(=O)[C@H](CN(CC(=O)O)CC(F)(F)F)NC(=O)[C@H](CC(=O)O)NC1=O)NC(=O)[C@H](CC(C)(C)C)NC(=O)[C@H](CC(=O)O)NC2=O (stereo partly drawn) [I-703]", "QUANTITY MEASURED": "chromatographic logD", "RECORDED MEASUREMENT": 2.76}
{"COMPOUND": "CC(=O)N1CCC[C@]12CC=CCCCC1(CCCC=CCCCCCC[C@@](C)(C(=O)N[C@@H](Cc3ccccc3)C(=O)N[C@@H](Cc3csc4ccccc34)C(=O)N[C@@H](Cc3c[nH]cn3)C(=O)NC(C)(C)C(N)=O)NC(=O)[C@H](CC(N)=O)NC(=O)[C@H](Cc3ccccc3)NC(=O)[C@H](C)NC(=O)[C@H](C)NC(=O)[C@H](CCC(=O)O)NC(=O)[C@H](CC(=O)O)NC1=O)NC(=O)[C@H](CC(C)C)NC(=O)[C@H](CC(=O)O)NC2=O (stereo partly drawn) [I-743]", "QUANTITY MEASURED": "chromatographic logD", "RECORDED MEASUREMENT": 2.6}

--- query ---
Give the measured chromatographic logD for CC(=O)N1CCC[C@]12CC=CCCCC1(CCCC=CCCCOC(=O)N3CC[C@@](C(=O)N[C@@H](Cc4ccsc4)C(=O)N[C@@H](Cc4csc5ccccc45)C(=O)N[C@@H](CCC(N)=O)C(N)=O)(C3)NC(=O)[C@H](Cc3ccccc3)NC(=O)[C@H](Cc3ccccc3)NC(=O)[C@H](C)NC(=O)[C@H](C)NC(=O)[C@H](CC(=O)O)NC(=O)[C@H](CC(=O)O)NC1=O)NC(=O)[C@H](CC(C)(C)C)NC(=O)[C@H](CC(=O)O)NC2=O (stereo partly drawn) [I-807]
2.27

----------
- EXPERIMENT NOTES: CHI Log D procedure
- Type: physicochemical
- STUDY CONDITIONS: pH 7.4
QUANTITY MEASURED: CHI Log D
Lab note: jot down the number only; don't add units.

Sample records with CHI Log D:
{"MOLECULE": "CC[C@H](C)[C@@H]1NC(=O)[C@H](CC(=O)O)NC(=O)[C@]2(CC=CCCCC3(CCCC=CCCCCCC[C@@](C)(C(=O)N[C@@H](Cc4ccccc4)C(=O)N[C@@H](Cc4csc5ccccc45)C(N)=O)NC(=O)[C@H](CC(N)=O)NC(=O)[C@H](Cc4ccccc4)NC(=O)[C@H](C)NC(=O)[C@H](C)NC(=O)[C@H](CCC(=O)O)NC(=O)[C@H](CC(=O)O)NC3=O)NC1=O)CCCN2C(C)=O (some centres unmarked) [I-714]", "CHI Log D": 2.698}
{"MOLECULE": "CC(=O)N1CCC[C@]12CC=CCCCC1(CCCC=CCCCCCC[C@@](C)(C(=O)N[C@@H](Cc3ccsc3)C(=O)N[C@@H](Cc3csc4ccccc34)C(=O)N[C@@H](CCC(N)=O)C(N)=O)NC(=O)[C@H](CCC(N)=O)NC(=O)[C@H](Cc3ccccc3)NC(=O)[C@H](C)NC(=O)[C@H](C)NC(=O)[C@H](CCC(=O)O)NC(=O)[C@H](CC(=O)O)NC1=O)NC(=O)[C@H](C)NC(=O)[C@H](CC(=O)O)NC2=O (some centres unmarked) [I-426]", "CHI Log D": 1.959}
{"MOLECULE": "CCN(CC(=O)O)C[C@@H]1NC(=O)[C@H](CC(=O)O)NC(=O)C2(CCCC=CCCCOC(=O)N3CC[C@@](C(=O)N[C@@H](Cc4ccsc4)C(=O)N[C@@H](Cc4csc5ccccc45)C(=O)N[C@@H](CO)C(N)=O)(C3)NC(=O)[C@H](CO)NC(=O)[C@H](Cc3ccccc3)NC(=O)[C@H](C)NC(=O)[C@H](C)NC1=O)CCCC=CC[C@]1(CCCN1C(C)=O)C(=O)N[C@@H](CC(=O)O)C(=O)N[C@@H](CC(C)(C)C)C(=O)N2 (some centres unmarked) [I-974]", "CHI Log D": 1.857}
{"MOLECULE": "CC[C@@H]1NC(=O)[C@H](CC(=O)O)NC(=O)[C@]2(CC=CCCCC3(CCCC=CCCCCCC[C@@](C)(C(=O)N[C@@H](Cc4ccccc4)C(=O)N[C@@H](Cc4csc5ccccc45)C(=O)N[C@@H](CCC(N)=O)C(N)=O)NC(=O)[C@H](CC(N)=O)NC(=O)[C@H](Cc4ccccc4)NC(=O)[C@H](C)NC(=O)[C@H](C)NC(=O)[C@H](CCC(=O)O)NC(=O)[C@H](CC(=O)O)NC3=O)NC1=O)CCCN2C(C)=O (some centres unmarked) [I-474]", "CHI Log D": 2.114}

Now for a further molecule.
Give a short answer stating reported CHI Log D for CC[C@H](C)[C@@H]1NC(=O)[C@H](CC(=O)O)NC(=O)[C@]2(CC=CCCCC3(CCCC=CCCCCCC[C@@](C)(C(=O)N[C@@H](Cc4ccccc4)C(=O)N[C@@H](Cc4c[nH]c5ccccc45)C(=O)N[C@@H](CCC(N)=O)C(N)=O)NC(=O)[C@H](CCC(N)=O)NC(=O)[C@H](Cc4ccccc4)NC(=O)[C@H](C)NC(=O)[C@H](C)NC(=O)[C@H](CCC(=O)O)NC(=O)[C@H](CC(=O)O)NC3=O)NC1=O)CCCN2C(C)=O (some centres unmarked) [I-180] .
2.193

----------
- ASSAYED SYSTEM: full-length beta-Catenin (Uniprot ID P35222) (Homo sapiens, UniProt P35222)
- Construct: 10 nM full-length beta-Catenin (Uniprot ID P35222)
- Sequence (P35222 whole entry): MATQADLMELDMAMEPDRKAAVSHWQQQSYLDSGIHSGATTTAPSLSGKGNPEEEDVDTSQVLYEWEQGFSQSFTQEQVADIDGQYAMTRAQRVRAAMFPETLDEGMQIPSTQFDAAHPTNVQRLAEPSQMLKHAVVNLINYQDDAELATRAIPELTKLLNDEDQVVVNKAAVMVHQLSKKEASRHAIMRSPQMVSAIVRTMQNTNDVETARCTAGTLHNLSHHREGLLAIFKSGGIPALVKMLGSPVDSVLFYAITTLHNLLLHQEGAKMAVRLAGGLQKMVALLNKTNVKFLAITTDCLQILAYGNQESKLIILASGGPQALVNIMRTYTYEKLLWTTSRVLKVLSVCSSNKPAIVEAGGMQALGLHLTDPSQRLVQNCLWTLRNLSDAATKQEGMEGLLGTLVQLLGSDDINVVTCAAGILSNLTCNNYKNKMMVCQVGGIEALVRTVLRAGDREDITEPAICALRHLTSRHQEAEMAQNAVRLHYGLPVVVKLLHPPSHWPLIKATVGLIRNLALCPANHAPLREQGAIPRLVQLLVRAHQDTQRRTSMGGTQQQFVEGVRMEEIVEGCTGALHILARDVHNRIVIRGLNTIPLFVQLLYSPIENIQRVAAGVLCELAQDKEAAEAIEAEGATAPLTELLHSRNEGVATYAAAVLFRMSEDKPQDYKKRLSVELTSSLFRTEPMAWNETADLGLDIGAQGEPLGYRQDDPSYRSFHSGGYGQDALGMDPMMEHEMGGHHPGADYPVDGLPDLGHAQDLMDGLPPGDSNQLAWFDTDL
- EXPERIMENT NOTES: Fluorescence polarization IC50 (beta-catenin / 5FAM-TCF4 10-53 competition)
- Type: binding
- STUDY CONDITIONS: read-out: beta-Catenin FP IC50
QUANTITY MEASURED: pIC50
Field pIC50 (float): negative decimal logarithm of the concentration in molar.

Sample records with pIC50:
{"COMPOUND": "CC(=O)N1CCC[C@]12CC=CCCCC1(CCCC=CCCCOC(=O)N3CC[C@@](C(=O)N[C@@H](Cc4ccccc4)C(=O)N[C@@H](Cc4csc5ccccc45)C(=O)N[C@@H](Cc4c[nH]cn4)C(N)=O)(C3)NC(=O)[C@H](CC(N)=O)NC(=O)[C@H](Cc3ccccc3)NC(=O)[C@H](C)NC(=O)[C@H](C)NC(=O)[C@H](CC(=O)O)NC(=O)[C@H](CC(=O)O)NC1=O)NC(=O)[C@H](CC(C)(C)C)NC(=O)[C@H](CC(=O)O)NC2=O (stereo partly drawn)", "QUANTITY MEASURED": "pIC50", "RECORDED MEASUREMENT": 8.30}
{"COMPOUND": "CC(=O)N1CCC[C@]12CC=CCCCC1(CCCC=CCCCOC(=O)N3CC[C@@](C(=O)N[C@@H](Cc4ccccc4Cl)C(=O)N[C@@H](Cc4csc5ccccc45)C(=O)N[C@@H](C(N)=O)[C@H](C)O)(C3)NC(=O)[C@H](CO)NC(=O)[C@H](Cc3ccccc3)NC(=O)[C@H](C)NC(=O)[C@H](C)NC(=O)[C@H](CC(=O)O)NC(=O)[C@H](CC(=O)O)NC1=O)NC(=O)[C@H](CC(C)(C)C)NC(=O)[C@H](CC(=O)O)NC2=O (stereo partly drawn)", "QUANTITY MEASURED": "pIC50", "RECORDED MEASUREMENT": 7.82}
{"COMPOUND": "CC(=O)N1CCC[C@]12CC=CCCCC1(CCCC=CCCCCCC[C@@](C)(C(=O)N[C@@H](Cc3ccccc3Cl)C(=O)N[C@@H](Cc3csc4ccccc34)C(=O)N[C@@H](C(N)=O)[C@H](C)O)NC(=O)[C@H]([C@@H](C)O)NC(=O)[C@H](Cc3ccccc3)NC(=O)[C@H](C)NC(=O)[C@H](C)NC(=O)[C@H](CCC(=O)O)NC(=O)[C@H](CC(=O)O)NC1=O)NC(=O)[C@H](CC(C)(C)C)NC(=O)[C@H](CC(=O)O)NC2=O (stereo partly drawn) [I-1094]", "QUANTITY MEASURED": "pIC50", "RECORDED MEASUREMENT": 7.34}
{"COMPOUND": "CC(=O)N1CCC[C@]12CC=CCCCC1(CCCC=CCCCOC(=O)N3CC[C@@](C(=O)N[C@@H](Cc4ccccc4Cl)C(=O)N[C@@H](Cc4csc5ccccc45)C(=O)N[C@@H](CO)C(N)=O)(C3)NC(=O)[C@H]([C@@H](C)O)NC(=O)[C@H](Cc3ccccc3)NC(=O)[C@H](C)NC(=O)[C@H](C)NC(=O)[C@H](CC(=O)O)NC(=O)[C@H](CC(=O)O)NC1=O)NC(=O)[C@H](Cc1ccccc1)NC(=O)[C@H](CC(=O)O)NC2=O (stereo partly drawn)", "QUANTITY MEASURED": "pIC50", "RECORDED MEASUREMENT": 8.22}
{"COMPOUND": "CCN(CC(=O)O)C[C@@H]1NC(=O)[C@H](CC(=O)O)NC(=O)C2(CCCC=CCCCOC(=O)N3CC[C@@](C(=O)N[C@@H](Cc4ccsc4)C(=O)N[C@@H](Cc4csc5ccccc45)C(=O)N[C@@H](CCC(N)=O)C(N)=O)(C3)NC(=O)[C@H](CO)NC(=O)[C@H](Cc3ccccc3)NC(=O)[C@H](C)NC(=O)[C@H](C)NC1=O)CCCC=CC[C@]1(CCCN1C(C)=O)C(=O)N[C@@H](CC(=O)O)C(=O)N[C@@H](CC(C)(C)C)C(=O)N2 (stereo partly drawn) [I-966]", "QUANTITY MEASURED": "pIC50", "RECORDED MEASUREMENT": 5.69}

State the measured pIC50 (full-length beta-Catenin (Uniprot ID P35222) (Homo sapiens, UniProt P35222)) of CC(=O)N1CCC[C@]12CC=CCCCC1(CCCC=CCCCOC(=O)N3CC[C@@](C(=O)N[C@@H](Cc4ccsc4)C(=O)N[C@@H](Cc4csc5ccccc45)C(=O)N[C@H](Cc4c[nH]cn4)C(N)=O)(C3)NC(=O)[C@H](CC(N)=O)NC(=O)[C@H](Cc3ccccc3)NC(=O)[C@H](C)NC(=O)[C@H](C)NC(=O)[C@H](CC(=O)O)NC(=O)[C@H](CC(=O)O)NC1=O)NC(=O)[C@H](CC(C)(C)C)NC(=O)[C@H](CC(=O)O)NC2=O (stereo partly drawn)
8.15

Give measured pIC50 for CC(=O)N1CCC[C@]12CC=CCCCC1(CCCC=CCCCCCC[C@@](C)(C(=O)N[C@@H](Cc3ccccc3)C(=O)N[C@@H](Cc3csc4ccccc34)C(=O)N[C@@H](C(N)=O)[C@H](C)O)NC(=O)[C@H](CC(N)=O)NC(=O)[C@H](Cc3ccccc3)NC(=O)[C@H](C)NC(=O)[C@H](C)NC(=O)[C@H](CCC(=O)O)NC(=O)[C@H](CC(=O)O)NC1=O)NC(=O)[C@H](CC(C)C)NC(=O)[C@H](CC(=O)O)NC2=O (stereo partly drawn) [I-754] (full-length beta-Catenin (Uniprot ID P35222) (Homo sapiens, UniProt P35222)).
6.94

Name the value of pIC50 reported for CC(=O)N1CCC[C@]12CC=CCCCC1(CCCC=CCCCCOC(=O)N3CC[C@@](C(=O)N[C@@H](Cc4ccsc4)C(=O)N[C@@H](Cc4csc5ccccc45)C(=O)N[C@@H](CC(N)=O)C(=O)N[C@H](C)C(N)=O)(C3)NC(=O)[C@H](CC(N)=O)NC(=O)[C@H](Cc3ccccc3)NC(=O)[C@H](C)NC(=O)[C@H](C)NC(=O)[C@H](CC(=O)O)NC(=O)[C@H](CC(=O)O)NC1=O)NC(=O)[C@H](CC(C)(C)C)NC(=O)[C@H](CC(=O)O)NC2=O (stereo partly drawn) [I-834] when tested on full-length beta-Catenin (Uniprot ID P35222) (Homo sapiens, UniProt P35222).
7.85

Give pIC50 for CC(=O)N1CCC[C@]12CC=CCCCC1(CCCC=CCCCOC(=O)N3CC[C@@](C(=O)N[C@@H](Cc4ccsc4)C(=O)N[C@@H](Cc4csc5ccccc45)C(=O)N[C@@H](C)C(N)=O)(C3)NC(=O)[C@H](CC(N)=O)NC(=O)[C@H](Cc3ccccc3)NC(=O)[C@H](C)NC(=O)[C@H](C)NC(=O)[C@H](CN(CC(=O)O)CC(F)(F)F)NC(=O)[C@H](CC(=O)O)NC1=O)NC(=O)[C@H](CC(C)(C)C)NC(=O)[C@H](CC(=O)O)NC2=O (stereo partly drawn) [I-944] tested on full-length beta-Catenin (Uniprot ID P35222) (Homo sapiens, UniProt P35222).
6.12

Entry source: patent US20240116985A1
